- systemName: T1, GFRα4 isoform b (GFRα4b), Fc fusion (human)
- T1 construct: the entry holds the whole fusion; also called GFR4α4b; GFRα4-Fc
- T1 sequence (chain, as listed by the source limits assumed): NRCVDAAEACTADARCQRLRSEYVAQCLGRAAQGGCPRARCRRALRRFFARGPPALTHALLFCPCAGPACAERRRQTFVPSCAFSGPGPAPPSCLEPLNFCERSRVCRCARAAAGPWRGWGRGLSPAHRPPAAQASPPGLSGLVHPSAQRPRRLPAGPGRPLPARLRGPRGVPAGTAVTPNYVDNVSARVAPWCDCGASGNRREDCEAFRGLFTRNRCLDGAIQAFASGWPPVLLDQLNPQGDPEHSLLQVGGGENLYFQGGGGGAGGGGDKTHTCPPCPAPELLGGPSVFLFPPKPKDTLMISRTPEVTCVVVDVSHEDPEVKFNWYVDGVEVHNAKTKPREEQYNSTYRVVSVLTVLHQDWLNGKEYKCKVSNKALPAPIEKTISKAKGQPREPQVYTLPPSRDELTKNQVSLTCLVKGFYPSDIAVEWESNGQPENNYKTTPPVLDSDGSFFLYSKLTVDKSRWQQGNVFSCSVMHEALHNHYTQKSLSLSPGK
- protocolText: phage ELISA, immobilized GFRα4b; second token of the cell
metric: binding result

>>> measurement("6.H2.L2m1 (scFv, pIII not in the entry; order Vλ-linker-VH; also called scFv 6) scFv: QFVLTQPPSASGTPGQRVTISCTLSSAHKTYTIDWYQQLPGTAPKLLIYVKSDGSYTKGTGVPDRFSGSSSGADRYLAISGLQSEDEADYYCGADDNGGYVFGGGTQLTVTGGGSSRSSSSGGGGSGGGGEVQLVESGGGLVQPGGSLRLSCAASGFTFSRHALTWVRQAPGKGLEWVSAIDNAGTTYYASWAKSRFTISRDNAKNSLYLQMNSLRAEDTAVYYCARVFYDINSGYYLDGMDLWGPGTLVTVSS")
"binds"
>>> measurement("10.H2.L1m1 (scFv, pIII not in the entry; order Vλ-linker-VH; also called scFv 10) scFv: QFVLTQSPSASASLGASVKLTCTLSSAHKTYTIDWYQQQPEKGPRYLMQVKSDGSYTKGTGVPDRFSGSSSGADRYLTISSLQSEDEADYYCGADDNGGYVFGGGTQLTVTGGGSSRSSSSGGGGSGGGGEVQLVESGGGLVQPGGSLRLSCAASGFTFSRHALTWVRQAPGKGLEWVSAIDNAGTTYYASWAKSRFTISRDNAKNSLYLQMNSLRAEDTAVYYCARVFYDINSGYYLDGMDLWGPGTLVTVSS")
"binds"

The values you see were collected from patent US20210095036A1.
